# test: Dose proportionality PK study, i.p., male SD rats
# condition_notes: male, SD, rat, plasma, ip, 10 mg/kg
Ends that are not written are not given here.

[
  {
    "substance": "PEGKGEQEHSQQKEEEEEMAV-NH2 [PSTi8]",
    "Tmax": "22.8 min"
  }
]

====

# test: Gender difference PK study, i.v. and i.p., female SD rats
# condition_notes: female, SD, rat, plasma, iv, 5 mg/kg
Ends that are not written are not given here.

[
  {
    "substance": "PEGKGEQEHSQQKEEEEEMAV-NH2 [PSTi8]",
    "AUC(0-inf) (ng·h/mL)": 9590
  }
]

====

# test: in vivo
# condition_notes: male, SD, rat, ip, 5 mg/kg
Ends that are not written are not given here.

[
  {
    "substance": "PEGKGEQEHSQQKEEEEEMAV-NH2 [PSTi8]",
    "CL/F": "10.3 mL/min/kg"
  }
]

====

# test: Gender difference PK study, i.v. and i.p., female SD rats
# condition_notes: female, SD, rat, plasma, iv, 5 mg/kg
Ends that are not written are not given here.
value_type: half-life

[
  {
    "substance": "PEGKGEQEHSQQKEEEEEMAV-NH2 [PSTi8]",
    "value_type": "half-life",
    "result": "9.6 min"
  }
]

====

# test: Dose proportionality PK study, i.p., male SD rats
# condition_notes: male, SD, rat, plasma, ip, 10 mg/kg, K01-HL (absorption half-life), i.p. 10 mg/kg, male SD rats
Ends that are not written are not given here.
value_type: half-life (min)

[
  {
    "substance": "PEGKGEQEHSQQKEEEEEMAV-NH2 [PSTi8]",
    "unit": "min",
    "result": 9
  }
]

====

# test: PK and bioavailability after i.v., i.p. and s.c. administration in male SD rats
# condition_notes: male, SD, rat, plasma, sc, 5 mg/kg
Ends that are not written are not given here.

[
  {
    "substance": "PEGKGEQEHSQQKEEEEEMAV-NH2 [PSTi8]",
    "Tmax (min)": 36
  }
]
